Listed next: entries and their corresponding IC50.
target: human recombinant KDM1A (LSD1)/CoRest (Homo sapiens, UniProt O60341); construct: made in house; host or cells: E. coli; test: Assay of enzyme inhibition of KDM1A (LSD1), Amplex UltraRed/peroxidase coupled; type: biochemical; details: 15 min preincubation, 4.5 μM mono-methylated H3-K4 peptide, range classes, read-out: IC50 [μM], KDM1A inhibition assay
Where a name gives a salt, the structure may show the parent alone.
QUANTITY_NAME: IC50

compound="C[C@@]1(NCc2cnc(N)nc2)C[C@H]1c1ccccc1 (relative stereo) [Example C-19, dihydrochloride]" result="0.1 to 1 µM"
compound="CC[C@@]1(N)C[C@H]1c1cccc(NC(=O)c2cccc(NC(=O)OCc3ccccc3)c2)c1 (relative stereo) [Example A-33, hydrochloride]" result="0.1 to 1 µM"
compound="N[C@]1(Cc2ccc3ccccc3c2)C[C@H]1c1ccc(NC(=O)c2ccccc2)cc1 [Example A-44, hydrochloride]" result="< 0.1 µM"

----------
molecular target: human recombinant KDM1A (LSD1)/CoRest (Homo sapiens, UniProt O60341); construct: made in house; host or cells: E. coli; test: Assay of enzyme inhibition of KDM1A (LSD1), Amplex UltraRed/peroxidase coupled; type: biochemical; settings: 15 min preincubation, 4.5 μM mono-methylated H3-K4 peptide, range classes, read-out: IC50 [μM], KDM1A inhibition assay
Where a name gives a salt, the structure may show the parent alone.
QUANTITY_NAME: IC50

compound="CC[C@]1(N)C[C@@H]1c1ccc(NC(=O)c2ccccc2)cc1.Cl (relative stereo) [Example A-47, hydrochloride]" tested_system="human recombinant KDM1A (LSD1)/CoRest (Homo sapiens, UniProt O60341)" result="< 0.1 µM"
compound="N[C@]1(Cc2ccccc2)C[C@H]1c1ccc(Br)cc1 (relative stereo) [Example A-13, hydrochloride]" tested_system="human recombinant KDM1A (LSD1)/CoRest (Homo sapiens, UniProt O60341)" result="0.1 to 1 µM"
compound="N[C@]1(Cc2ccc3ccccc3c2)C[C@H]1c1cccc(Br)c1 (relative stereo) [Example A-57, hydrochloride]" tested_system="human recombinant KDM1A (LSD1)/CoRest (Homo sapiens, UniProt O60341)" result="0.1 to 1 µM"
compound="N[C@]1(CNC2CC2)C[C@H]1c1ccccc1 (relative stereo) [Example B-4, dihydrochloride]" tested_system="human recombinant KDM1A (LSD1)/CoRest (Homo sapiens, UniProt O60341)" result="1 to 5 µM"
compound="CC[C@@]1(NCCN2CCCCC2)C[C@H]1c1ccccc1 (relative stereo) [Example C-31, dihydrochloride]" tested_system="human recombinant KDM1A (LSD1)/CoRest (Homo sapiens, UniProt O60341)" result="0.1 to 1 µM"
compound="CC[C@@]1(N)C[C@H]1c1cccc(C(F)(F)F)c1 (relative stereo) [Example A-18, hydrochloride]" tested_system="human recombinant KDM1A (LSD1)/CoRest (Homo sapiens, UniProt O60341)" result="0.1 to 1 µM"
compound="C[C@]1(NCC(=O)N2CC[C@H](N)C2)C[C@@H]1c1ccccc1 [Example C-5, hydrochloride]" tested_system="human recombinant KDM1A (LSD1)/CoRest (Homo sapiens, UniProt O60341)" result="0.1 to 1 µM"

----------
Listed next: entries and their corresponding IC50.
target: human recombinant KDM1A (LSD1)/CoRest (Homo sapiens); construct: made in house; host or cells: E. coli; test: Assay of enzyme inhibition of KDM1A (LSD1), Amplex UltraRed/peroxidase coupled; assay type: biochemical; details: 15 min preincubation, 4.5 μM mono-methylated H3-K4 peptide, range classes, read-out: IC50 [μM], KDM1A inhibition assay
Where a name gives a salt, the structure may show the parent alone.
QUANTITY_NAME: IC50

compound="CC[C@@]1(N)C[C@H]1c1cccc(-n2cc(-c3ccccc3)nn2)c1 (relative stereo) [Example A-122, hydrochloride]" quantity_name=IC50 result="0.1 to 1 µM"
compound="CN1CCN(C(=O)CN[C@]2(c3ccccc3)C[C@H]2c2ccccc2)CC1 (relative stereo) [Example C-23, dihydrochloride]" quantity_name=IC50 result="0.1 to 1 µM"
compound="CN1CCN(C[C@@]2(N)C[C@H]2c2ccccc2)CC1 (relative stereo) [Example B-5, trihydrochloride]" quantity_name=IC50 result="1 to 5 µM"
compound="N[C@]1(c2ccccc2)C[C@H]1c1ccc(NC(=O)c2ccc3ccccc3c2)cc1 (relative stereo) [Example A-85, hydrochloride]" quantity_name=IC50 result="< 0.1 µM"
compound="COc1ncccc1CN[C@]1(C)C[C@H]1c1ccccc1 (relative stereo)" quantity_name=IC50 result="1 to 5 µM"
compound="CC[C@@]1(N)C[C@H]1c1cccc(NC(=O)c2ccccc2)c1 (relative stereo) [Example A-93, hydrochloride]" quantity_name=IC50 result="0.1 to 1 µM"
compound="CN1CCN(C(=O)CN[C@]2(Cc3ccc4ccccc4c3)C[C@H]2c2ccccc2)CC1 (relative stereo) [Example C-24, dihydrochloride]" quantity_name=IC50 result="0.1 to 1 µM"
compound="CC[C@@]1(N)C[C@H]1c1ccc(NC(=O)c2ccc(-c3ccoc3)cc2)cc1 (relative stereo) [Example A-78, hydrochloride]" quantity_name=IC50 result="< 0.1 µM"
compound="CC[C@@]1(N)C[C@H]1c1ccccc1Br (relative stereo) [Example A-27, hydrochloride]" quantity_name=IC50 result="0.1 to 1 µM"
compound="N[C@]1(c2ccccc2)C[C@H]1c1ccc(NC(=O)Cc2ccc3ccccc3c2)cc1 (relative stereo)" quantity_name=IC50 result="< 0.1 µM"
compound="N[C@]1(CCc2ccccc2)C[C@H]1c1ccc(NC(=O)c2ccncc2)cc1 (relative stereo) [Example A-112, hydrochloride]" quantity_name=IC50 result="< 0.1 µM"
compound="N[C@]1(CCc2ccccc2)C[C@H]1c1ccc(Cl)cc1 (relative stereo) [Example A-58, hydrochloride]" quantity_name=IC50 result="< 0.1 µM"
compound="CC[C@@]1(N)C[C@H]1c1ccc(NC(=O)c2ccc(-c3ccccc3)c(NC3CCN(C)CC3)c2)cc1 (relative stereo) [Example A-66, dihydrochloride]" quantity_name=IC50 result="< 0.1 µM"
compound="CC[C@@]1(N)C[C@H]1c1ccc(NC(=O)c2ccc(C3CCN(C)CC3)cc2)cc1 (relative stereo)" quantity_name=IC50 result="< 0.1 µM"
compound="CC[C@@]1(N)C[C@H]1c1cccc(OC)c1 (relative stereo) [Example A-23, hydrochloride]" quantity_name=IC50 result="0.1 to 1 µM"
compound="N[C@]1(Cc2ccc3ccccc3c2)C[C@H]1c1ccc(-n2cc(-c3cccc(NC(=O)OCc4ccccc4)c3)nn2)cc1 [Example A-123, hydrochloride]" quantity_name=IC50 result="< 0.1 µM"
compound="CN1CCC(c2ccc(C(=O)Nc3ccc([C@@H]4C[C@]4(N)c4ccccc4)cc3)cc2)CC1 (relative stereo) [Example A-109, dihydrochloride]" quantity_name=IC50 result="< 0.1 µM"
compound="CC[C@@]1(N)C[C@H]1c1ccc(NC(=O)c2cccc3ccccc23)cc1 (relative stereo) [Example A-71, hydrochloride]" quantity_name=IC50 result="< 0.1 µM"
compound="CC[C@@]1(NCc2ccccc2)C[C@H]1c1ccccc1 (relative stereo) [Example C-13, hydrochloride]" quantity_name=IC50 result="1 to 5 µM"
compound="N[C@]1(Cc2ccc3ccccc3c2)C[C@H]1c1ccc(Cl)cc1 (relative stereo) [Example A-55, hydrochloride]" quantity_name=IC50 result="0.1 to 1 µM"
compound="N[C@]1(c2ccccc2)C[C@H]1c1ccc(NC(=O)c2cccc(N3CCOC3=O)c2)cc1 (relative stereo) [Example A-111, hydrochloride]" quantity_name=IC50 result="< 0.1 µM"
compound="C[C@@]1(NCc2nnc(N)o2)C[C@H]1c1ccccc1 (relative stereo)" quantity_name=IC50 result="0.1 to 1 µM"
compound="CN[C@]1(C)C[C@H]1c1ccccc1 (relative stereo) [Example C-29, hydrochloride]" quantity_name=IC50 result="1 to 5 µM"
compound="N[C@]1(CCc2ccccc2)C[C@H]1c1ccc(Br)cc1 (relative stereo)" quantity_name=IC50 result="0.1 to 1 µM"
compound="CC[C@@]1(N)C[C@H]1c1cccc(NC(=O)c2cccc(Cl)c2)c1 (relative stereo) [Example A-80, hydrochloride]" quantity_name=IC50 result="0.1 to 1 µM"
compound="CC[C@]1(N)C[C@@H]1c1ccc(NC(=O)c2ccc(-c3ccccc3)cc2)cc1 [Example A-128, hydrochloride]" quantity_name=IC50 result="< 0.1 µM"
